ASSAYED_SYSTEM: GST-huANT3 recombinantly produced in E. coli (membranes) (Homo sapiens)
Construct: Gly-Ser-Pro-Gly-Ile-Leu-Met, where “Met” indicates the amino acid encoded by the translation initiation codon of huANT3
Sequence (P12236 whole entry): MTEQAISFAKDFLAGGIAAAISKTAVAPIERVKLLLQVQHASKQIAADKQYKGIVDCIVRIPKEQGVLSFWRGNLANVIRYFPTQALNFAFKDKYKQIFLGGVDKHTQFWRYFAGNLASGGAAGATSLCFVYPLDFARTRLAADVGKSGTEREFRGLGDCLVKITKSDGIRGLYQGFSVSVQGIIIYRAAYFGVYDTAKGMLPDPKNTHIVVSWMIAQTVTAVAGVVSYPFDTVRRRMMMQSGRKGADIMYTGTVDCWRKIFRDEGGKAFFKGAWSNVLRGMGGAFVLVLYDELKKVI
ASSAY_COMMENT: Saturation binding of [32P]ATP to E. coli membranes, huANT3-producing cells
MEASUREMENT_CONTEXT: from saturation binding data of Table 2; read-out: affinity of the ATP binding
EXPERIMENTAL_READOUT: Kd

Documented Kd of Nc1ncnc2c1ncn2[C@@H]1O[C@H](COP(=O)(O)OP(=O)(O)OP(=O)(O)O)[C@@H](O)[C@H]1O [ATP, adenosine triphosphate] : ~6 µM
